This collection of values is drawn from patent US20250368729A1.

Exercise: for every item that follows, state its recorded pEC50.
Biological target: T1, synthetic amyloid-like fibrils of recombinant amyloidogenic λ6 variable domain protein (rVλ6Wil)
T1 construct: domain: λ6 variable domain; Fibrillar aggregate of many copies; also called rVλ6Wil fibrils; rVλ6Wil synthetic fibrils
Experiment: EuLISA, substrate coated on plate
Procedure: To perform europium-linked immunosorbent assays (EuLISAs), suspensions of rVλ6Wil fibrils (sonicated) were prepared at 0.83 μM in phosphate buffered saline (PBS). The fibrils were coated onto the wells of a 96-well microplate by adding 50 μL to each well. The plates dried at 37° C. overnight. […] Time-resolved fluorescence emission was detected using a microplate reader (Wallac). […]
Numbers only, as −log10 of the molar value.

Field: example entries. Status: answers known.
VH9/VL4-p5R (humanized VH9/VL4 with peptide p5R fused to the N-terminal of the light chain) (antibody, V domains shown) VH: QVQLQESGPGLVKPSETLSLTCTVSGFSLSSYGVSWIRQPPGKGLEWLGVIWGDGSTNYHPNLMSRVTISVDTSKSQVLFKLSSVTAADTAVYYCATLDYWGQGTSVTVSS VL: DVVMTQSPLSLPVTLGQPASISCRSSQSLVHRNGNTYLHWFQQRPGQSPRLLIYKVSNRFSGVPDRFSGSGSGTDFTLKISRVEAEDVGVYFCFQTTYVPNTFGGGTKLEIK | 8.41
murine Ig-peptide fusion Igp5 (murine 11-1F4 with peptide p5 fused to the N-terminus of the light chain) (antibody, Antibody-peptide fusion; unlabelled in the EuLISA; also called mIgp5; mIgG-p5; not shown: murine 11-1F4 (IgG1) CH1 followed by murine IgG2a CH2-CH3 (pFUSE-mIgG2A-Fc); murine 11-1F4 kappa constant region (CL)) heavy: QVQLKESGPGLVAPSQSLSITCTVSGFSLSSYGVSWVRQPPGKGLEWLGVIWGDGSTNYHPNLMSRLSISKDISKSQVLFKLNSLQTDDTATYYCVTLDYWGQGTSVTVSS light: AQAGQAGQAQGGGYSKAQKAQAKQAKQAQKAQKAQAKQAKQVTPTVDVVMTQTPLSLPVSLGDQASISCRSSQSLVHRNGNTYLHWYLQKPGQSPKLLIYKVSNRFSGVPDRFSGSGSGTDFTLKISRVEAEDLGLYFCFQTTYVPNTFGGGTKLEIK | 8.54

Now turn to the next binder.
## Input GET /values?readout=pEC50&item= VH6/VL3-p5 (humanized VH6/VL3 with peptide p5 fused to the N-terminal of the light chain) (antibody, V domains shown) VH: QVQLQESGPGLVKPSETLSLTCTVSGFSLSSYGVSWVRQPPGKGLEWLGVIWGDGSTNYHPNLMSRLSISKDTSKNQFSLKLSSVTAADTATYYCVTLDYWGQGTSVTVSS VL: DVVMTQSPLSLPVTLGQPASISCRSSQSLVHRNGNTYLHWYLQRPGQSPRLLIYKVSNRFSGVPDRFSGSGSGTDFTLKISRVEAEDVGLYFCFQTTYVPNTFGGGTKLEIK
## Output 8.46
